Values compiled from patent US10703764B2.

Each entry below lists one item and its recorded pIC50 value.
Target: BRD4 BD2 (Homo sapiens)
Test: AlphaScreen binding assay, BRD4 Bromodomain 2
pIC50: −log10 of the molar value.

Illustrative cases are given below, each with its answer.
{"Molecule": "CC(=O)N1c2ccc(-c3ccc(S(=O)(=O)N4CCCC4)cc3)cc2N(C(=O)c2ccco2)C[C@@H]1C", "pIC50": "< 6.30"}
{"Molecule": "CC(=O)N1c2ccc(-c3cnn(C4CCOCC4)c3)cc2N(C(=O)OC(C)C)C[C@@H]1C", "pIC50": "6.30 to 7.30"}
{"Molecule": "CC(=O)N1c2ccc(-c3ccccc3F)cc2N(C(=O)COc2ccccc2)C[C@@H]1C", "pIC50": "< 6.30"}
{"Molecule": "COc1cccc(NC(=O)N2C[C@H](C)N(C(C)=O)c3ccc(-c4ccc(S(C)(=O)=O)cc4)cc32)c1", "pIC50": "6.30 to 7.30"}
{"Molecule": "CC(=O)N1c2ccccc2N(Cc2cccc(C(F)(F)F)c2)C[C@@H]1C", "pIC50": "< 6.30"}

Problem: What does the data say about its pIC50? Entry: `CC(=O)N1c2ccc(-c3ccc(S(=O)(=O)NCCO)cc3)cc2N(C(=O)c2ccco2)C[C@@H]1C`
Result: > 7.30

Problem: Consider next the molecule `CC(=O)N1c2ccccc2N(C(=O)c2ccncc2)C[C@@H]1C` in the same way.
Result: < 6.30

Problem: Consider next the molecule CC(=O)N1c2ccc(-c3cnn(C4COC4)c3)cc2N(C(=O)[C@@H]2CC2(Cl)Cl)C[C@@H]1C (single isomer, unassigned) in the same way.
Result: 6.30 to 7.30

---

Target: BRD4 BD2 (Homo sapiens)
Assay: AlphaScreen binding assay, BRD4 Bromodomain 2
Experimental: The binding of Example compounds to BRD4 Bromodomain 1 and BRD4 Bromodomain 2 was assessed using 384-well AlphaScreen assay technology. His-epitope tagged BRD4 BD144-168 and BRD4 BD2333-460 were cloned, expressed, and purified to homogeneity. BRD4 BD1 and BRD4 BD2 binding and inhibition was assessed by monitoring the engagement of biotinylated Histone H4 (1-21) K5/8/12/16 tetra-acetylated peptide with the targets using the AlphaScreen technology (PerkinElmer). […]
pIC50: −log10 of the molar value.
Endpoint: pIC50

Illustrative cases are given below, each with its answer.
{"Molecule": "CC(=O)N1c2ccccc2N(Cc2ccc(Cl)cc2Cl)C[C@@H]1C [Example I-894]", "Assay system": "BRD4 BD2 (Homo sapiens)", "Experimental result": "< 6.30"}
{"Molecule": "CCC(C)OC(=O)N1C[C@H](C)N(C(C)=O)c2ccc(-c3ccc(S(C)(=O)=O)cc3)cc21 (stereo partly drawn) [Example I-494]", "Assay system": "BRD4 BD2 (Homo sapiens)", "Experimental result": "6.30 to 7.30"}
{"Molecule": "CC(=O)N1c2ccc(-c3ccc(F)c(S(C)(=O)=O)c3)cc2N(C(=O)OC2CCCCC2)C[C@@H]1C [Example I-1249]", "Assay system": "BRD4 BD2 (Homo sapiens)", "Experimental result": "6.30 to 7.30"}
{"Molecule": "CC(=O)N1c2ccc(-c3ccc(N4CCS(=O)(=O)CC4)cc3)cc2N(C(=O)OC(C)C)C[C@@H]1C [Example I-467]", "Assay system": "BRD4 BD2 (Homo sapiens)", "Experimental result": "6.30 to 7.30"}

Problem: What does the data say about its pIC50? Entry: CC(=O)N1c2ccc(-c3cccc(-c4ccco4)c3)cc2N(C(=O)c2ccco2)C[C@@H]1C [Example I-855]
Result: > 7.30

Problem: Consider next the molecule CC(=O)N1c2ccc(-c3cccc(NS(=O)(=O)c4ccc(C)cc4)c3)cc2N(C(=O)c2ccco2)C[C@@H]1C [Example I-859] in the same way.
Result: > 7.30

Problem: Consider next the molecule CC(=O)N1c2ccccc2N(S(=O)(=O)c2ccccc2C)C[C@@H]1C [Example I-941] in the same way.
Result: < 6.30

Problem: Consider next the molecule CC(=O)N1c2ccc(-c3cnn(CCn4cncn4)c3)cc2N(C(=O)OC(C)C)C[C@@H]1C [Example I-139] in the same way.
Result: > 7.30
